For each of the compounds below, state its CC50 at 5 days.
Test: Cytotoxicity (CC50) in MT-4 cells, mock-infected, CellTiter-Glo
Conditions: human, MT-4 cells, mock-infected, CC50 nM in MT-4, MT-4 cells, 5 days incubation

Which CC50 at 5 days reading was recorded for the compound `O=C(NCc1c(F)cc(F)cc1F)c1cn2c(c(O)c1=O)C(=O)N1[C@H]3CC[C@H](C3)O[C@@H]1C2` ?
3540 nM

Lookup `C[C@@H]1CCO[C@H]2Cn3cc(C(=O)NC4(c5ccc(F)cc5F)CC4)c(=O)c(O)c3C(=O)N12`
10500 nM

Lookup O=C(NCc1c(F)cc(F)cc1F)c1cn2c(c(O)c1=O)C(=O)N1[C@H]3C[C@H](C3)[C@H]1C2 (single isomer, unassigned)
26600 nM

Lookup `O=C(NCc1ccc(F)cc1F)c1cn2c(c(O)c1=O)C(=O)N1[C@H]3CC[C@H](CC3)[C@H]1C2`
11600 nM

Lookup O=C(NCc1c(F)cc(F)cc1F)c1cn2c(c(O)c1=O)C(=O)N1[C@H]3C[C@H](C3)[C@@H]1C2 (single isomer, unassigned)
17300 nM

Lookup `C[C@H]1CO[C@@H]2Cn3cc(C(=O)NC4(c5ccc(F)cc5F)CC4)c(=O)c(O)c3C(=O)N12`
19500 nM

Lookup `O=C(NCc1c(F)cc(F)cc1F)c1cn2c(c(O)c1=O)C(=O)N1[C@@H]3CC[C@@H](C3)O[C@H]1C2`
15800 nM

---

Tested on: MT4 cells
Assay: in vitro
Details: human, 5 days
TEST_READOUT: CC50
I'd appreciate it if you included the unit after the number.

Which CC50 reading was recorded for the molecule `O=C(NC1(c2ccc(F)cc2F)CC1)c1cn2c(c(O)c1=O)C(=O)N1[C@@H]3CC[C@@H](C3)O[C@H]1C2` ?
6.83 µM

---

Assay: in vitro
Settings: human, CC50 nM in MT-4
Label 1 (yes) when CC50 at 5 days is strictly below 10000 nM; otherwise label 0 (no).

Is it true that CC50 at 5 days reported for `O=C(NCc1ccc(F)c(Cl)c1F)c1cn2c(c(O)c1=O)C(=O)N1[C@H]3CC[C@H](C3)[C@H]1C2` is less than 10000 nM?
0 (no)

Lookup `O=C(NCc1cccc(Cl)c1Cl)c1cn2c(c(O)c1=O)C(=O)N1[C@H]3CC[C@H](C3)[C@@H]1C2`
1 (yes)

Lookup `O=C(NCc1ccc(F)cc1F)c1cn2c(c(O)c1=O)C(=O)N1[C@H]3CC[C@H](C3)[C@@H]1C2`
0 (no)

Lookup `O=C(NCc1cc(Cl)c(F)cc1F)c1cn2c(c(O)c1=O)C(=O)N1[C@H]3CC[C@H](C3)O[C@@H]1C2`
1 (yes)

Lookup O=C(NCc1ccc(F)cc1F)c1cn2c(c(O)c1=O)C(=O)N1C(C2)O[C@H]2CCC[C@@H]1C2 (stereo partly shown)
0 (no)

Lookup O=C(NC1(c2ccc(F)cc2F)CC1)c1cn2c(c(O)c1=O)C(=O)N1C(C2)O[C@@H]2CC[C@H]1C2 (stereo partly shown)
1 (yes)

Lookup `C[C@H](NC(=O)c1cn2c(c(O)c1=O)C(=O)N1[C@H]3CC[C@H](C3)O[C@@H]1C2)c1ccc(F)cc1`
1 (yes)

---

Assay: in vitro
Conditions: human, CC50 nM in MT-4
For each of the compounds below, state its CC50 at 5 days.
Output spec: scalar in nM, unitless text.

Which CC50 at 5 days reading was recorded for the compound `O=C(NCc1cccc(Cl)c1F)c1cn2c(c(O)c1=O)C(=O)N1[C@H]3CC[C@H](C3)[C@@H]1C2` ?
8090

Lookup `O=C(NCc1cc(Cl)c(F)cc1F)c1cn2c(c(O)c1=O)C(=O)N1[C@H]3CC[C@H](C3)[C@@H]1C2`
5040

Lookup `O=C(NCc1ccc(F)c(F)c1)c1cn2c(c(O)c1=O)C(=O)N1[C@@H]3CC[C@@H](C3)O[C@H]1C2`
10300

Lookup `O=C(NCc1c(F)cccc1F)c1cn2c(c(O)c1=O)C(=O)N1[C@@H]3CC[C@@H](C3)O[C@H]1C2`
19300

Lookup `O=C(NCc1ccc(F)c(F)c1F)c1cn2c(c(O)c1=O)C(=O)N1[C@H]3CC[C@H](C3)[C@@H]1C2`
7180

Lookup `O=C(NCc1cccc(Cl)c1)c1cn2c(c(O)c1=O)C(=O)N1[C@H]3CC[C@H](C3)[C@@H]1C2`
6260

Lookup `O=C(NCc1ccc(F)cc1F)c1cn2c(c(O)c1=O)C(=O)N1[C@H]3CC[C@H](C3)O[C@@H]1C2`
3110

---

Experiment: in vitro
Settings: human, CC50 nM in MT-4
For each of the molecules below, state its CC50 at 5 days.
Output spec: scalar in nM, unitless text.

Which CC50 at 5 days reading was recorded for the molecule `O=C(NCc1ccc(F)cc1C(F)(F)F)c1cn2c(c(O)c1=O)C(=O)N1[C@H]3CC[C@H](C3)[C@@H]1C2` ?
2980

Lookup O=C(NC1(c2ccc(F)cc2F)CC1)c1cn2c(c(O)c1=O)C(=O)N1C(C2)O[C@H]2CC[C@@H]1C2 (stereo partly shown)
8750

Lookup `O=C(NCc1ccc(Cl)cc1F)c1cn2c(c(O)c1=O)C(=O)N1[C@@H]3CC[C@@H](C3)O[C@H]1C2`
6610

Lookup O=C(NCc1ccc(F)cc1F)c1cn2c(c(O)c1=O)C(=O)N1C(C2)O[C@@H]2CCC[C@H]1C2 (stereo partly shown)
13900

Lookup `C[C@H](NC(=O)c1cn2c(c(O)c1=O)C(=O)N1[C@@H]3CC[C@@H](C3)O[C@H]1C2)c1ccc(F)cc1`
13000

Lookup `O=C(NCc1c(F)cc(F)cc1F)c1cn2c(c(O)c1=O)C(=O)N1[C@H](C2)[C@H]2C[C@H](F)[C@@H]1C2`
12300

Lookup `O=C(NCc1ccc(F)cc1Cl)c1cn2c(c(O)c1=O)C(=O)N1[C@H]3CC[C@H](C3)O[C@@H]1C2`
3160

Lookup `O=C(NCc1cc(F)cc(F)c1)c1cn2c(c(O)c1=O)C(=O)N1[C@@H]3CC[C@@H](C3)O[C@H]1C2`
12100

Lookup `O=C(NCc1c(F)cc(F)cc1F)c1cn2c(c(O)c1=O)C(=O)N1[C@@H](C2)[C@H]2C[C@@H]1C(F)(F)C2`
17900

Lookup `O=C(NCc1c(F)cc(F)cc1F)c1cn2c(c(O)c1=O)C(=O)N1[C@H]3CCC[C@H](C3)[C@H]1C2`
10400

Lookup `O=C(NCc1ccc(F)c(C(F)(F)F)c1)c1cn2c(c(O)c1=O)C(=O)N1[C@@H]3CC[C@@H](C3)O[C@H]1C2`
5230

Lookup `O=C(NCc1ccc(Cl)c(F)c1)c1cn2c(c(O)c1=O)C(=O)N1[C@@H]3CC[C@@H](C3)O[C@H]1C2`
8840

Lookup O=C(NCc1ccc(F)cc1F)c1cn2c(c(O)c1=O)C(=O)N1C(C2)[C@H]2CC[C@@H]1C2 (stereo in doubt) [Compound 48]
14000

---

Molecular target: PXR (Homo sapiens (Human))
Sequence (O75469 whole entry): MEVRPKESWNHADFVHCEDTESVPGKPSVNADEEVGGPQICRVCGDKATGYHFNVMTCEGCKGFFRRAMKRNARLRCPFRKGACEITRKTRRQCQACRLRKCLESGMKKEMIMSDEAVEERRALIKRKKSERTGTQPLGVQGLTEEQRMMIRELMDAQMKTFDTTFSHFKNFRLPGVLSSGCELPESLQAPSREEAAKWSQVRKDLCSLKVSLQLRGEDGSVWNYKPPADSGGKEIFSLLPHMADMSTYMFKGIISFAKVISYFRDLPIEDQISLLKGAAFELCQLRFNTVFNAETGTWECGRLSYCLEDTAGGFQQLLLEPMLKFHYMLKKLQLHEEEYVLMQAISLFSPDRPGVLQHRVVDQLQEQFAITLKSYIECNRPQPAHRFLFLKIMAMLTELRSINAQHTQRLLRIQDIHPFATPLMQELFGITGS
Assay: Human PXR activation assay (luciferase reporter gene assay, DPX2 cells)
Type: cell-based
Settings: human
Assign YES to entries whose Emax at 24 h, 15 µM meets or exceeds 3%; assign NO to the rest.

Would you say `O=C(NCc1c(F)cc(F)cc1F)c1cn2c(c(O)c1=O)C(=O)N1[C@H](C2)[C@H]2C[C@H](F)[C@@H]1C2` shows Emax at 24 h, 15 µM at minimum 3%?
NO

Lookup `O=C(NCc1c(F)cc(F)cc1F)c1cn2c(c(O)c1=O)C(=O)N1[C@H]3CC[C@H](C3)[C@H]1C2`
YES

Lookup `O=C(NCc1ccc(F)c(F)c1)c1cn2c(c(O)c1=O)C(=O)N1[C@H]3CC[C@H](C3)[C@@H]1C2`
NO

Lookup `O=C(NCc1cc(F)ccc1F)c1cn2c(c(O)c1=O)C(=O)N1[C@H]3CC[C@H](C3)O[C@@H]1C2`
YES

Lookup O=C(N[C@@H](c1ccc(F)cc1F)C(F)(F)F)c1cn2c(c(O)c1=O)C(=O)N1C(C2)O[C@@H]2CC[C@H]1C2 (stereo partly shown)
NO

Lookup `C[C@H]1C[C@@H]2C[C@H]1N1C(=O)c3c(O)c(=O)c(C(=O)NCc4c(F)cc(F)cc4F)cn3C[C@H]21`
YES

Lookup `O=C(NCc1ccc(F)c(F)c1)c1cn2c(c(O)c1=O)C(=O)N1[C@@H]3CC[C@@H](C3)O[C@H]1C2`
YES

Lookup `O=C(NCc1ccc(F)c(Cl)c1F)c1cn2c(c(O)c1=O)C(=O)N1[C@H]3CC[C@H](C3)[C@H]1C2`
NO

Lookup O=C(NC1(c2ccc(F)cc2F)CCCC1)c1cn2c(c(O)c1=O)C(=O)N1C(C2)O[C@H]2CC[C@@H]1C2 (stereo partly shown)
YES

Lookup `O=C(NCc1ccc(F)cc1C(F)(F)F)c1cn2c(c(O)c1=O)C(=O)N1[C@H]3CC[C@H](C3)[C@@H]1C2`
NO

Lookup `C[C@@H](NC(=O)c1cn2c(c(O)c1=O)C(=O)N1[C@H]3CC[C@H](C3)O[C@@H]1C2)c1ccc(F)cc1`
YES
